target: Cholinesterase (Equus caballus) (UniProt P81908); assay: Inhibition of equine serum BuChE at 50 uM pre-incubated for 15 mins before butylthiocholine chloride substrate addition by Ellman assay
Sequence (P81908 whole entry): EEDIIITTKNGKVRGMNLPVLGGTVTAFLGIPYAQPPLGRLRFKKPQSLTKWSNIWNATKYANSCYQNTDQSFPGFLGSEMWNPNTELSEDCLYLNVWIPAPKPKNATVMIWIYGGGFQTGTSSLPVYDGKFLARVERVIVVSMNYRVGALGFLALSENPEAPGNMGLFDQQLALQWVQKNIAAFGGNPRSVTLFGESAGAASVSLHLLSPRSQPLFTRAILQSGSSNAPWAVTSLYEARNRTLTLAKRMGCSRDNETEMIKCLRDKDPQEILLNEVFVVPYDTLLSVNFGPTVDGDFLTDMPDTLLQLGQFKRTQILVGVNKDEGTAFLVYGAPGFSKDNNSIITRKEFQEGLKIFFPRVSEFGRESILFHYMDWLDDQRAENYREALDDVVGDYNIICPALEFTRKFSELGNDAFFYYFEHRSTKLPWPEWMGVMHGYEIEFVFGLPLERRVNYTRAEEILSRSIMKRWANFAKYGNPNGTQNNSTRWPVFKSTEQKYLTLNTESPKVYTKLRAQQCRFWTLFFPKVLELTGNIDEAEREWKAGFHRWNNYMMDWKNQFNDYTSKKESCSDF
Record form. Attribute: inhibition. Fill in for each entry.
The response must be a number in % with no trailing unit.

Data request: Give a short answer stating reported inhibition for CCN(CCCCCCNC(=O)/C=C/c1ccc(O)c(OC)c1)Cc1ccccc1OC .
Data returned: 36.2

Data request: Give a short answer stating reported inhibition for CCN(CCCCCCNC1=CC(=O)C(NCCCCCCN(CC)Cc2ccccc2OC)=CC1=O)Cc1ccccc1OC .
Data returned: 5.8

Data request: Give a short answer stating reported inhibition for COc1cc(/C=C/C(=O)NCCCCCCN(C)Cc2ccccc2OC)ccc1O .
Data returned: 27.6
